Target: Histone-lysine N-methyltransferase SETD7 (Homo sapiens, UniProt Q8WTS6)
Sequence (Q8WTS6 whole entry): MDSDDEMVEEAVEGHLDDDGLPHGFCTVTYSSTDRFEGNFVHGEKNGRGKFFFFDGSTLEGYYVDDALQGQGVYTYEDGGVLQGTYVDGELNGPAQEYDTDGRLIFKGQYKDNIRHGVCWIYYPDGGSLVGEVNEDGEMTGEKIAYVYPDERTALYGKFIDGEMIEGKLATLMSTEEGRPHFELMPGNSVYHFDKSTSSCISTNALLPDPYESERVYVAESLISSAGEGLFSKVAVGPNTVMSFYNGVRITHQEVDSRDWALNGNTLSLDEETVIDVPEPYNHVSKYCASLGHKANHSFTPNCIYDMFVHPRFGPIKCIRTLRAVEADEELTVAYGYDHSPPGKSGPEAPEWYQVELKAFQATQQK
Experiment: Inhibition of recombinant Set7/9 (unknown origin) expressed in Escherichia coli BL21 (DE3) using Ac-KRSK-MCA peptide/SAM as substrate preincubated for 1 hr followed by substrate addition measured after 15 mins by Dixon plot analysis
Outcome Measure: Ki (µM)
Value expressed in µM; do not type the unit.

INPUT: Identify the reported Ki for the following entry. CN1CCC(=C2c3ccccc3C=Cc3ccccc32)CC1 [CYPROHEPTADINE]
OUTPUT: 15
